- Test system: SNB-75 CNS
- method: NCI-60 one-dose screen, 48 h
- condition info: 10 µM
About 83,000 compounds went through this panel and 20% of them were active in at least one assay; those are over-represented in the sample as a whole. Activity calls are given as the source filed them. The calls were made as follows: active = growth percent below 10; inactive = the rest.
Classes used: active, inactive

compound	classification
CCOP(=O)(OCC)C(NC(C)=O)C(=O)SCCN (stereo not drawn)	inactive
CC1=C(CCC=O)C2=C(C)C3(CC3)[C@@](C)(O)C(=O)C2=C1	active
O=C(/C=C/c1ccco1)c1nc2ccccc2n1Cc1ccc(Br)cc1	inactive
O=C(/C=C/c1ccc(Cl)cc1)c1nc2ccccc2n1Cc1ccc(Br)cc1	inactive
COCCOCCOCCOc1ccc(-n2cc(-c3ccc(O[C@H]4O[C@@H]5OC6(C)CC[C@H]7[C@H](C)CC[C@@H]([C@H]4C)[C@@]57OO6)cc3)nn2)cc1	inactive
CCC[Se]C(=O)c1ccc(C(=O)[Se]CCC)s1	active
COC(=O)CCn1c(-c2ccc(-n3cc(-c4ccc(O[C@H]5O[C@@H]6OC7(C)CC[C@H]8[C@H](C)CC[C@@H]([C@H]5C)[C@@]68OO7)cc4)nn3)cc2)nc2ccccc21	inactive
O=C(/C=C/c1ccc(F)cc1)c1nc2ccccc2n1Cc1ccc(F)cc1	inactive
CC(=O)Oc1ccccc1C(=O)[Se]C(=NC(C)C)NC(C)C	active
CC(=C\C(=O)Oc1ccc2c3c1OC1C(O)CCC4(O)C(C2)N(CC2CCC2)CCC314)/C=C1\CCCc2ccccc21 (stereo not drawn)	inactive
O=C([Se]C1C=CCCC1)c1ccc(C(=O)[Se]C2C=CCCC2)s1 (stereo not drawn)	active
C[C@H]1[C@H](OC(=O)CCC(=O)N(CCCc2cn(-c3ccc([N+](=O)[O-])cc3)nn2)CCNc2ccnc3cc(Cl)ccc23)O[C@@H]2OC3(C)CC[C@H]4[C@H](C)CC[C@@H]1[C@@]24OO3	inactive
CCOP(=O)(CC(F)(F)C(F)(F)F)OCC	inactive
O=C(/C=C/c1ccc(Cl)cc1)c1nc2ccccc2n1Cc1ccc(F)cc1	inactive
COC(=O)c1ccc(-n2cc(CCCN(CCNc3ccnc4cc(Cl)ccc34)C(=O)CCC(=O)O[C@@H]3O[C@@H]4OC5(C)CC[C@H]6[C@H](C)CC[C@@H]([C@H]3C)[C@@]46OO5)nn2)cc1	inactive
COc1cc(OC)c(S(=O)(=O)N(CCCl)CCCl)cc1C(=O)/C=C/c1cc(OC)c(OC)c(OC)c1	active
CC(C)N=C([Se])NC(=O)c1ccccc1	active
COCCOCCOCCOc1ccc(-n2cc(CCCN(CCNc3ccnc4cc(Cl)ccc34)C(=O)CCC(=O)O[C@@H]3O[C@@H]4OC5(C)CC[C@H]6[C@H](C)CC[C@@H]([C@H]3C)[C@@]46OO5)nn2)cc1	inactive
